# Test system: Caenorhabditis elegans N2
# protocol.details: mean nematode size ln(EXT) after 48 h, plate-adjusted (DMSO control set to 6) (ln(EXT), control-adjusted); higher = larger nematodes / less growth inhibition
# test.conditions: 50 µM; exposure time 48 h
measurement.name: mean nematode size ln(EXT) (ln)
Reply briefly: the number, and no unit.

As a guide, the following entries are already answered.
• CCC(C)(c1ccc(O)cc1)c1ccc(O)cc1 = 5.87
• CSC(=O)c1cccc2nnsc12 = 5.37
• Cc1nc(-c2ccccn2)ncc1C(=O)Nn1cc(C)c2cc(F)ccc21 = 5.73

Item under review: `CCCCCC(=O)O` . Reported mean nematode size ln(EXT) (ln)? 5.83

Also, O=C(OCCCCCOC(=O)c1ccccc1)c1ccccc1 [1,5-Pentanediol,1,5-dibenzoate] please. 5.86

Also, `Cc1ccccc1O` please. 5.92

Also, `Cc1ccc(-c2cc(C(F)(F)F)nn2-c2ccc(S(N)(=O)=O)cc2)cc1` please. 4.7

====

# System: Caenorhabditis elegans N2
# protocol.details: mean nematode size ln(EXT) after 48 h, plate-adjusted (DMSO control set to 6) (ln(EXT), control-adjusted); higher = larger nematodes / less growth inhibition
# test.conditions: 200 µM; exposure time 48 h
Counter-ions that a name gives are not always drawn.
Response key: class 1 means mean nematode size ln(EXT) (ln) >= 5; class 0 means mean nematode size ln(EXT) (ln) < 5.

Examples with answers:
• O=C(O)C(F)(F)C(F)(F)C(F)(F)C(F)(F)C(F)(F)C(F)(F)C(F)(F)F [Pentadecafluorooctanoic acid ammonium salt] = class 1
• CCNc1nc(NC(C)C)nc(SC)n1 = class 1
• Nc1nc(N)c2nc(CNc3ccc(C(=O)NC(CCC(=O)O)C(=O)O)cc3)cnc2n1 (stereo not given) = class 1

Would you say CCCCCCCCOC(=O)c1cc(O)c(O)c(O)c1 [Octyl gallate] shows mean nematode size ln(EXT) (ln) at minimum 5? class 0

Also, `N#Cc1cc(Br)c(O)c(Br)c1` please. class 1

Also, `CCOC(=O)c1ccc(O)cc1` please. class 1

Also, `c1ccc2c(c1)oc1ccccc12` please. class 0

Also, `c1ccc2c(c1)-c1cccc3cccc-2c13` please. class 0

Also, `CCCCCCC(=O)O` please. class 1

Also, `c1ccc(/N=N/c2ccccc2)cc1` please. class 0

====

# System: Caenorhabditis elegans N2
# protocol.details: AC50 for larval growth inhibition (Hill fit); higher = less potent
# test.conditions: exposure time 48 h
Where a name gives a salt, the structure may show the parent alone.
measurement.name: AC50 for larval growth inhibition (µM)
Respond numerically; units are µM and should not be typed.

As a guide, the following entries are already answered.
• O=C1O[C@H]([C@@H](O)CO)C([O-])=C1O.[Na+] [(+)-Sodium L-ascorbate] = 132
• COc1cccc(C(=O)NN(C(=O)c2cc(C)cc(C)c2)C(C)(C)C)c1C [Methoxyfenozide] = 195
• NCc1cccc(C2CCN(C(=O)c3ccc(C#Cc4ccccc4F)o3)CC2)c1 = 31.6
• CC(C)(C)c1cc(O)c(C(C)(C)C)cc1O = 113

Test system Caenorhabditis elegans N2; read-out AC50 for larval growth inhibition; what value for `O=C(O)C(F)(F)C(F)(F)C(F)(F)C(F)(F)C(F)(F)C(F)(F)C(F)(F)C(F)(F)C(F)(F)C(F)(F)F` ? 4.14

Also, N=C(N)c1ccc(OCCCCCOc2ccc(C(=N)N)cc2)cc1 [Pentamidine isethionate salt] please. 149

Also, O=C(O)C(F)(F)C(F)(F)C(F)(F)C(F)(F)C(F)(F)C(F)(F)C(F)(F)F [Perfluorooctanoic acid] please. 60.2

Also, `CCC(C)(C)C(=O)OC1=C(c2ccc(Cl)cc2Cl)C(=O)OC12CCCCC2` please. 24

Also, CC(C)N(C(=O)SCC(Cl)=C(Cl)Cl)C(C)C [Tri-allate] please. 86.7

Also, `C[Si]1(C)O[Si](C)(C)O[Si](C)(C)O[Si](C)(C)O1` please. 183

Also, `CN(C)C(=O)Nc1ccc(Cl)c(Cl)c1` please. 179

Also, Cc1cnc(C2=NC(=O)C(C)(C(C)C)N2)c(C(=O)O)c1 (stereo not drawn) please. 79.6

Also, `O=C(Nc1ccccc1)c1ccccc1I` please. 39.3
